assay: toxicity, 24 hours values; assay type: in vivo; settings: in vivo; intravenous, 24 hours value; read-out: Tolerated dosage
Counter-ions that a name gives are not always drawn.
readout type: MTD at 24 h (mg/kg)
Lab book: enter the figure in mg/kg, no units written.

Supply MTD at 24 h value. Item: Cn1nc(O)c(=O)nc1SCC1=C(C(=O)O)N2C(=O)[C@@H](NC(=O)/C(=N\O)c3csc(N)n3)[C@H]2SC1 [Product A, disodium salt]
500

====

experiment: toxicity, 24 hours values; assay type: in vivo; details: in vivo, sc; subcutaneous, 24 hours value; read-out: Tolerated dosage
Where a name gives a salt, the structure may show the parent alone.
readout type: MTD at 24 h

For the compound Cn1nc(OCOC(=O)C(C)(C)C)c(=O)nc1SCC1=C(C(=O)O)N2C(=O)[C@@H](NC(=O)/C(=N\O)c3csc(N)n3)[C@H]2SC1 [Product B, sodium salt] , give its measured MTD at 24 h value.
> 4000 mg/kg

Ref: patent US4774330A
